Each item that follows carries a reported zone of inhibition at 400 µg/disc.
- Test system: Staphylococcus aureus
- method: Antibacterial activity against Staphylococcus aureus NCTC 4163 at 400 ug after 18 hr by disk diffusion method
- Type: functional
- condition_summary: NCTC 4163, 18 h, read-out: DIZ
Numbers only here, please. The scale is mm.

Solved entries (count: 3):
# compound, target_or_test_system, unit_of_measure, zone of inhibition at 400 µg/disc
measured = [
    ("CC1(C)Cc2c(Br)c(Br)c(Br)c(O)c2O1", "Staphylococcus aureus", "mm", 17),
    ("CC1(C)Cc2c(Br)c(Br)c(Br)c(OCC(O)CN3CCCCC3)c2O1 (centres undefined)", "Staphylococcus aureus", "mm", 18),
    ("CN(C)CC(O)COc1c(Br)c(Br)c(Br)c2c1OC(C)(C)C2 (centres undefined)", "Staphylococcus aureus", "mm", 18),
]

Param item = CC(C)NCC(O)COc1c(Br)c(Br)c(Br)c2c1OC(C)(C)C2 (centres undefined) ; retrieve measured zone of inhibition at 400 µg/disc. 20
